Assay: Induction of NO release in PBS at pH 7.4 by Griess assay
Format: physicochemical
Details: buffer
For each entry below, report its Activity value.
One number for each entry, in %.

Sample answers from the record:
O=[N+]([O-])OCCCOc1ccc(-c2c3nc(c(-c4ccccc4)c4ccc([nH]4)c(-c4ccccc4)c4nc(c(-c5ccccc5)c5ccc2[nH]5)C=C4)C=C3)cc1 = 0.47
Cc1ccc(-c2c3nc(c(-c4ccc(C)cc4)c4ccc([nH]4)c(-c4ccc(OCCO[N+](=O)[O-])cc4)c4nc(c(-c5ccc(C)cc5)c5ccc2[nH]5)C=C4)C=C3)cc1 = 0.55
Cc1ccc(-c2c3nc(c(-c4ccc(C)cc4)c4ccc([nH]4)c(-c4ccc(OCCCO[N+](=O)[O-])cc4)c4nc(c(-c5ccc(C)cc5)c5ccc2[nH]5)C=C4)C=C3)cc1 = 1.1

Now take the following compound into account.
Ask: Note down Activity recorded for "O=[N+]([O-])OCCOc1ccc(-c2c3nc(c(-c4ccccc4)c4ccc([nH]4)c(-c4ccccc4)c4nc(c(-c5ccccc5)c5ccc2[nH]5)C=C4)C=C3)cc1"
Result: 0.43

---

For each entry below, report its IC50 value.
Test system: MCF7
Assay: Cytotoxicity against human MCF7 after 72 hrs by MTT assay
Type: functional, cell-based
Details: MCF7, 72 h
Give bare numbers, in µM.

Sample answers from the record:
Cc1ccc(-c2c3nc(c(-c4ccc(C)cc4)c4ccc([nH]4)c(-c4ccc(OCCCO[N+](=O)[O-])cc4)c4nc(c(-c5ccc(C)cc5)c5ccc2[nH]5)C=C4)C=C3)cc1 = 46
Cc1ccc(-c2c3nc(c(-c4ccc(C)cc4)c4ccc([nH]4)c(-c4ccc(OCCO[N+](=O)[O-])cc4)c4nc(c(-c5ccc(C)cc5)c5ccc2[nH]5)C=C4)C=C3)cc1 = 55
C1=Cc2nc1c(-c1ccccc1)c1nc(c(-c3ccccc3)c3ccc([nH]3)c(-c3ccccc3)c3ccc([nH]3)c2-c2ccccc2)C=C1 [TETRAPHENYLPORPHYRIN] = 245
O=c1[nH]cc(F)c(=O)[nH]1 [FLUOROURACIL] = 4.7
O=[N+]([O-])OCCCOc1ccc(-c2c3nc(c(-c4ccccc4)c4ccc([nH]4)c(-c4ccccc4)c4nc(c(-c5ccccc5)c5ccc2[nH]5)C=C4)C=C3)cc1 = 30

Ask: Note down IC50 recorded for "O=[N+]([O-])OCCOc1ccc(-c2c3nc(c(-c4ccccc4)c4ccc([nH]4)c(-c4ccccc4)c4nc(c(-c5ccccc5)c5ccc2[nH]5)C=C4)C=C3)cc1"
Result: 8.7

---

Assay: Induction of NO release in phosphate buffer containing L-cysteine at pH 7.4 by Griess assay
Assay type: physicochemical
Measure: Activity (%)
Numbers only, in %.

Cc1ccc(-c2c3nc(c(-c4ccc(C)cc4)c4ccc([nH]4)c(-c4ccc(OCCO[N+](=O)[O-])cc4)c4nc(c(-c5ccc(C)cc5)c5ccc2[nH]5)C=C4)C=C3)cc1 = 3.12
Cc1ccc(-c2c3nc(c(-c4ccc(C)cc4)c4ccc([nH]4)c(-c4ccc(OCCCO[N+](=O)[O-])cc4)c4nc(c(-c5ccc(C)cc5)c5ccc2[nH]5)C=C4)C=C3)cc1 = 6.25

Each molecule below has a recorded value; state its Activity.
1. O=[N+]([O-])OCCOc1ccc(-c2c3nc(c(-c4ccccc4)c4ccc([nH]4)c(-c4ccccc4)c4nc(c(-c5ccccc5)c5ccc2[nH]5)C=C4)C=C3)cc1
2. O=[N+]([O-])OCCCOc1ccc(-c2c3nc(c(-c4ccccc4)c4ccc([nH]4)c(-c4ccccc4)c4nc(c(-c5ccccc5)c5ccc2[nH]5)C=C4)C=C3)cc1

Result:
1: 5.67; 2: 3.95
